Target: T1, Human IL12 (His Tag) (human, UniProt P29459 23-219; P29460 23-328)
T1 construct: Bought His-tagged heterodimer
T1 sequence (looked up) 1: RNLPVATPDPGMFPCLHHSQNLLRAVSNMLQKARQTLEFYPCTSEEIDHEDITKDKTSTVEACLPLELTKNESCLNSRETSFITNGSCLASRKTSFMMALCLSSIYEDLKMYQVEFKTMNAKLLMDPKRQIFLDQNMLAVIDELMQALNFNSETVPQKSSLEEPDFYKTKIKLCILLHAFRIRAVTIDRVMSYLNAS
T1 sequence (looked up) 2: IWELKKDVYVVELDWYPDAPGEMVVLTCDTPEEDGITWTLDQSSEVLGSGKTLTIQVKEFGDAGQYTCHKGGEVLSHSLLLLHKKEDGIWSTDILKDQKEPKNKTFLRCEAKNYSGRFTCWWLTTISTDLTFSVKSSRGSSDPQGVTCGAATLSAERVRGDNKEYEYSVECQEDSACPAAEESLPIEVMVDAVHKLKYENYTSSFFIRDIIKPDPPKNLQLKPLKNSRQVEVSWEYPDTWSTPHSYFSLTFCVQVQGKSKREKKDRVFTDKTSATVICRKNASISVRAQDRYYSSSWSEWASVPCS
Experiment: FACS competition, IL-12-His 20 nM on 293T-IL-12Rβ1&IL-23R cells; antibody 0.37 µg/mL
Labelling field: enter yes if recorded MFI is less than 100 MFI. Enter no if it equals or exceeds that cut-off.

Consider the worked cases shown below.
- binder: "H5L9 (antibody, human IgG1, kappa, V domains shown, human IgG1 (P01857) / kappa (P01834) constant regions; also called humanized antibody H5L9) VH: EVQLVQSGAEVKKPGESLKISCQSSGYSFTTYWIGWVRQMPGQGLEWIGIMSPVDSDIRYNPMFRGQVTMSVDKSSSTAYLQWSSLKASDTAMYYCARRRPGQGYFDFWGQGTMVTVSS VL: DIQMTQSPSSLSASVGDRVTITCKASQNVGSWLAWYQQKPGKAPKSLIYSASSRQSGVPSRFSGSGSGTDFTLTISSLQPEDFATYYCQQYDIYPFTFGQGTKLEIKR"
  labelValue: "no"
- binder: "H5L10 (antibody, human IgG1, kappa, V domains shown, human IgG1 / kappa constant regions; also called humanized antibody H5L10) VH: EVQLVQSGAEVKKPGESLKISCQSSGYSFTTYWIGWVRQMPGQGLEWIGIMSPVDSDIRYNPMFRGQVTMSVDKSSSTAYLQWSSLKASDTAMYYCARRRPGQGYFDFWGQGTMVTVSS VL: EIVLTQSPATLSASPGERATISCRASQSVGSWLAWYQQKPGQAPRSLIYAASNLQSGIPARFSGSGSGTDFTLTISSLEPEDFAVYYCQQYNIYPYTFGQGTRLEIKR"
  labelValue: "yes"
- binder: "H5L14 (antibody, human IgG1, kappa, V domains shown, human IgG1 / kappa constant regions; also called humanized antibody H5L14) VH: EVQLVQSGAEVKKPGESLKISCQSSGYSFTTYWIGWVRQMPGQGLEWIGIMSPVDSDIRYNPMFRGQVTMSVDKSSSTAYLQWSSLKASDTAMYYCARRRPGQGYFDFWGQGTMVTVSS VL: EIVLTQSPATLSASPGERATISCRASQSVSSWLAWYQQKPGQAPRSLIYAASNLQSGIPARFSGSGSGTDFTLTISSLEPEDFAVYYCQQYNIYPFTFGQGTRLEIKR"
  labelValue: "no"
- binder: "ustekinumab (antibody, V domains shown) VH: EVQLVQSGAEVKKPGESLKISCKGSGYSFTTYWLGWVRQMPGKGLDWIGIMSPVDSDIRYSPSFQGQVTMSVDKSITTAYLQWNSLKASDTAMYYCARRRPGQGYFDFWGQGTLVTVSS VL: DIQMTQSPSSLSASVGDRVTITCRASQGISSWLAWYQQKPEKAPKSLIYAASSLQSGVPSRFSGSGSGTDFTLTISSLQPEDFATYYCQQYNIYPYTFGQGTKLEIK"
  labelValue: "yes"

Here's the next entry for you.
**Q:** MFI strictly < 100 MFI for this binder? H5L12 (antibody, human IgG1, kappa, V domains shown, human IgG1 / kappa constant regions; also called humanized antibody H5L12) VH: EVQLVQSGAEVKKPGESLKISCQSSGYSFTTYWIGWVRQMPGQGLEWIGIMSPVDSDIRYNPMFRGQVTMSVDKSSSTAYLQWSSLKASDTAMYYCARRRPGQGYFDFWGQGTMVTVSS VL: EIVLTQSPATLSASPGERATISCRASQSVSSWLAWYQQKPGQAPRSLIYAASNRQSGIPARFSGSGSGTDFTLTISSLEPEDFAVYYCQQYNIYPYTFGQGTRLEIKR
**A:** yes
